Measurement target: Small ubiquitin-related modifier 1 (Homo sapiens)
Sequence (P63165 whole entry): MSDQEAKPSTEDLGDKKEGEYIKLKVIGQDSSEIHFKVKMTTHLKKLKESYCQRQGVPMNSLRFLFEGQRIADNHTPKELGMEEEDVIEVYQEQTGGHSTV
Test name: inhibitors of SUMO1 partner interactions, dose response, biochemical, FRET (AID 624383)
Type: functional
Recorded conditions: read-out: IC50_Mean
The source made the active and inactive calls.
Hello, when you answer, please use one of the following outcomes: active, inactive

Past entries and their recorded results:
• NC(=O)c1ccsc1NC(=O)c1cc(=O)c2ccccc2o1 = active
• CCC(CO)Oc1cc(NC(=O)c2cccc(OC)c2)c2ncn(C(C)C)c2c1 (stereo not drawn) = active
• CCOC(=O)C(=O)Cc1cccnn1 = active
• C=C(C)C(=O)Nc1cccc(C2=NOC3(C2)C[C@H](C(N)=O)N(C(=O)/C=C/C)C3)c1 (stereo partly drawn) = active
• CN1C(=O)/C(=C/c2ccc(-c3ccccc3[N+](=O)[O-])o2)S/C1=N\c1ccc(Cl)c(C(=O)O)c1 = active
• Cc1ccccc1C1=C/C(=C(\SS/C(C(=O)c2ccc(OCC(=O)O)c(Cl)c2Cl)=C2\C=C(c3ccccc3C)SS2)C(=O)c2ccc(OCC(=O)O)c(Cl)c2Cl)SS1 = inactive
• CC1(C)C2CC[C@]3(C)[C@H](C(=O)C=C4[C@@H]5C[C@@](C)(C(=O)O)CC[C@]5(C)CC[C@]43C)[C@@]2(C)CC[C@@H]1O[C@H]1O[C@H](C(=O)O)[C@@H](O)[C@H](O)[C@H]1O[C@@H]1O[C@H](C(=O)O)[C@@H](O)[C@H](O)[C@H]1O (stereo partly drawn) = active

Please find the next molecule below.
Query string: Called result for O=C(O)CP(=O)(c1ccccc1)c1ccccc1
Result string: inactive

====

Measurement target: Protein skinhead-1 (Caenorhabditis elegans)
Sequence (P34707 whole entry): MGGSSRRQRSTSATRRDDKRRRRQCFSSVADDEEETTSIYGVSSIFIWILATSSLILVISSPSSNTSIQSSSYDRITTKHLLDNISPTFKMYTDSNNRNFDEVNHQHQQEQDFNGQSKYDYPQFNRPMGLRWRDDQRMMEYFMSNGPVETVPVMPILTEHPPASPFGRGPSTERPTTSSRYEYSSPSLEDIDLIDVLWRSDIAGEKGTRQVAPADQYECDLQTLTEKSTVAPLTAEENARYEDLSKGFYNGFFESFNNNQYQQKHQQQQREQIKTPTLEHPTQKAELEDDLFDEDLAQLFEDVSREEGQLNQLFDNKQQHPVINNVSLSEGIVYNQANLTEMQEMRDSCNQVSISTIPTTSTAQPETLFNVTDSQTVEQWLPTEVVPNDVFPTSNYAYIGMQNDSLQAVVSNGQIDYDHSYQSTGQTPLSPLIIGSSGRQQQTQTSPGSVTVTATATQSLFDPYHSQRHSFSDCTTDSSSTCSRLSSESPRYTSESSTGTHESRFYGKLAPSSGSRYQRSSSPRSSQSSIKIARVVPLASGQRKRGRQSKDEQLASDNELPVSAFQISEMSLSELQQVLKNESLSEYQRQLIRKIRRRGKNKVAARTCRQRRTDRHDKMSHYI
Format: functional
Activity calls are given as the source filed them.
IC50 reference

Use the examples below as a reference point.
• CC(C)(C)NC1=NN=C(c2ccc(Cl)cc2)CS1 = 13.9 µM (active)
• Cc1c(C(=O)N(C)c2ccc(Cl)cc2)cnn1-c1ccccc1 = > 100 µM (inactive)
• Cc1cc(C)n(-c2ccc(C(=O)Oc3ccc4c(c3)OCO4)cc2)n1 = > 100 µM (inactive)

Query string: Given the entry CCOC(=O)N1CCN(c2ncnc3c2cnn3-c2ccc(OC)cc2)CC1 , report its measured IC50.
Result string: > 100 µM (inactive)

Query string: And the next one, Cc1ccc(N(CC(=O)NCC2CCCO2)S(=O)(=O)c2ccc(Cl)cc2)cc1C (stereo unspecified) ?
Result string: > 100 µM (inactive)

Query string: And the next one, Cc1cccc(C#Cc2ccccc2)n1 ?
Result string: > 100 µM (inactive)

Query string: And the next one, Cc1ccc(NC(=O)c2ccc(F)cc2F)cc1 ?
Result string: 79 µM (inactive)

Query string: And the next one, N#C/C(=C\c1ccco1)Sc1nc2ccccc2s1 ?
Result string: > 100 µM (inactive)

Query string: And the next one, [O-]/[N+](=C\c1ccco1)c1ccc(Cl)cc1 ?
Result string: > 100 µM (inactive)

Query string: And the next one, Cc1ccc(NC(=O)CSc2nc(N)cc(O)n2)cc1S(=O)(=O)N1CCCCCC1 ?
Result string: > 100 µM (inactive)

Query string: And the next one, Clc1ccc(C#Cc2cccnc2)cc1 ?
Result string: 12.6 µM (active)

====

Test name: C. albicans growth with fluconazole, confirmation, fluorescence, retest (AID 2467)
Format: functional, cell-based
Calls of active or inactive are those of the source.
EC50 reference

• COc1cccc(OCc2nc3ccccc3c(=O)n2N)c1 = 10.1 µM (active)
• NS(=O)(=O)c1cccc(NC(S)=NCc2ccc3c(c2)OCO3)c1 = > 38 µM (not active)
• COc1ccc(-c2cc(=O)oc3cc(OC(=O)C4CCCCC4)c(Cl)cc23)cc1 = 1.9 µM (active)

Query string: Given the entry CCN(CC)c1ccc(/C=N/Nc2nc(C)cc(O)n2)c(O)c1 , report its measured EC50.
Result string: 1.09 µM (active)

====

The listing below reports AC50 for compounds tested on Cytochrome P450 2C9 (Homo sapiens, UniProt P11712).
Sequence (P11712 whole entry): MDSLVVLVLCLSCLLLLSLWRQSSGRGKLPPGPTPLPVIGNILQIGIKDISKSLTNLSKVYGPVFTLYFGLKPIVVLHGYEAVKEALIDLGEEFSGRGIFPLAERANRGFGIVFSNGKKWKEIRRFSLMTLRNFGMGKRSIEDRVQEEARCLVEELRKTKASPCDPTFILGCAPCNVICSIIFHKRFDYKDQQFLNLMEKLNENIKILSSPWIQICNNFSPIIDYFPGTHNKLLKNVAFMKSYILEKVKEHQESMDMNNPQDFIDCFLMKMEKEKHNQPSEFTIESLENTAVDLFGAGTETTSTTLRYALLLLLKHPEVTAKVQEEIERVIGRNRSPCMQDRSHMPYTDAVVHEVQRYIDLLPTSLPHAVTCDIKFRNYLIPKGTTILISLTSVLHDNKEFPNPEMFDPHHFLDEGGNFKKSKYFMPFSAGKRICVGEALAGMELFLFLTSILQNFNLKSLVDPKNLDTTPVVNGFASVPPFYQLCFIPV
Recorded metric: AC50

* Cc1cc(C)cc(-n2nnnc2SCC(=O)Nc2nc(-c3ccc(Cl)cc3)cs2)c1 | inconclusive
* CCN(CC)c1ccc(/C=C/c2nc3ccccc3s2)cc1 | inconclusive
* O=C(CO)N/N=C/c1ccccc1F | inconclusive

====

Measurement target: Sentrin-specific protease 7 (Homo sapiens, UniProt Q9BQF6);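 further: Luminescence-based dose-response confirmation of ultra-high-throughput screening hits, measuring inhibition of SENP7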
Sequence (Q9BQF6 whole entry): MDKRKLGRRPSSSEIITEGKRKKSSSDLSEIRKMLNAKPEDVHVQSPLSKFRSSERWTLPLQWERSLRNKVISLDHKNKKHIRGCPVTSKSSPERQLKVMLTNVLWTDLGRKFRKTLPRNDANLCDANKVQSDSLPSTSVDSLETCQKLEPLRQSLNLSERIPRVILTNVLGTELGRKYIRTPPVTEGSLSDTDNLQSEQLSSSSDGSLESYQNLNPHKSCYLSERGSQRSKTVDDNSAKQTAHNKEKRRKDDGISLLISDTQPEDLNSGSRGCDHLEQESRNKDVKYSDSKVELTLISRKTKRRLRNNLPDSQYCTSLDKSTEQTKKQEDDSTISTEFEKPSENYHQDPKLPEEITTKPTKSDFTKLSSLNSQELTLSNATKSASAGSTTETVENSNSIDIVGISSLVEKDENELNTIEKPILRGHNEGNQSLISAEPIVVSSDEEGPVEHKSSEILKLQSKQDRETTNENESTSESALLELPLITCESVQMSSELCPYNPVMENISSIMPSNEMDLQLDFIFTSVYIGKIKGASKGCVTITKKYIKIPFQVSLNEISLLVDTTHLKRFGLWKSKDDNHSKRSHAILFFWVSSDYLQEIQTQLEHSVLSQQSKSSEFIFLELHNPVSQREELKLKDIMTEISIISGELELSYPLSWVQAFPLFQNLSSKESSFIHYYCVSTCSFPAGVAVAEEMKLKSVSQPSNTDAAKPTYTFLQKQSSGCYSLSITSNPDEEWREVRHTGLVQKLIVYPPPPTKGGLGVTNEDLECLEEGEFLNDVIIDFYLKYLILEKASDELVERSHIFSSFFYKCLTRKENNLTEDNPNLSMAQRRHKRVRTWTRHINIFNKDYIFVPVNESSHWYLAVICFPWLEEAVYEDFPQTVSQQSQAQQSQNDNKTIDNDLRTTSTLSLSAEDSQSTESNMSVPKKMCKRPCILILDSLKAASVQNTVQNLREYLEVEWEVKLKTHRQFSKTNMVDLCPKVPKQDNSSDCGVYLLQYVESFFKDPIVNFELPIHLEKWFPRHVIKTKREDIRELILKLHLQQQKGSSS
Format: functional
Active and inactive are the calls of the source.
Recorded metric: IC50

* Nn1c(SCc2ccccc2)nc2c(cnn2-c2ccccc2)c1=O | 11.4 µM (active)
* Nc1c(C(=O)Nc2cccc(C(=O)O)c2)sc2nc3c(cc12)CCCC3 | 7.47 µM (active)
* Clc1ccc(C2=CSC3=Nc4cccc5cccc(c45)N23)cc1 | 5.65 µM (active)

Okay, next one:
Query string: Given the entry O=C(Cn1cc(SCc2ccc(F)cc2)c2ccccc21)N1CCOCC1 , report its measured IC50.
Result string: 6.95 µM (active)

====

Measurement target: Short transient receptor potential channel 4 (Mus musculus)
Sequence (Q9QUQ5 whole entry): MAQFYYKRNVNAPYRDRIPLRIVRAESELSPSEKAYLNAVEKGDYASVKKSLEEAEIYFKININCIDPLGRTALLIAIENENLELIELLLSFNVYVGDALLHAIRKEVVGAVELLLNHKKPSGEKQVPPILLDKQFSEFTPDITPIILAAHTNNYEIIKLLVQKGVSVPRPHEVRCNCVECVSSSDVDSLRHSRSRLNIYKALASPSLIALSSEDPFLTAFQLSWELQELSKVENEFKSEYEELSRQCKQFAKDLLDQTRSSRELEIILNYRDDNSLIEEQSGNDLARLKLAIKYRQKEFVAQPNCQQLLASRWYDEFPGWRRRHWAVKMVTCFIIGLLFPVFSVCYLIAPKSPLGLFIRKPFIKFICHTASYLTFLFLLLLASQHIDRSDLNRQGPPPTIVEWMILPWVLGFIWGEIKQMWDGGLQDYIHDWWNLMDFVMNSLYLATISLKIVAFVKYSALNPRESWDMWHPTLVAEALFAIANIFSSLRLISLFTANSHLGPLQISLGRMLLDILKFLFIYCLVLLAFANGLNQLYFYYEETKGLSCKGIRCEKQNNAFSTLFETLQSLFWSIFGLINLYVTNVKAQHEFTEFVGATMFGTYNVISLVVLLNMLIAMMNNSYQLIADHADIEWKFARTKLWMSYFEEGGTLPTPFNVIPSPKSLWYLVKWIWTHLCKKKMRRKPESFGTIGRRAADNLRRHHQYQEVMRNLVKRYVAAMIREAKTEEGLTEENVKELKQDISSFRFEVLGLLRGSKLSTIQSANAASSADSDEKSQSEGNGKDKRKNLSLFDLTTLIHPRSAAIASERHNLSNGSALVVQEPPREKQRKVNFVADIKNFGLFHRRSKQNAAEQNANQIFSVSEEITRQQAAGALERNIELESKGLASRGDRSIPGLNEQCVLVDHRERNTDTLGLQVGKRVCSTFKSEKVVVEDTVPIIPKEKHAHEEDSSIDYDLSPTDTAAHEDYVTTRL
Test name: mouse TRPC4 channel activators, dose response, cell-based, HEK293 TRPC4/mu-opioid, Fluo-4 calcium (AID 434937)
Format: functional
Calls of active or inactive are those of the source.
EC50 reference

Use the examples below as a reference point.
* CCOC(=O)C1(CCOc2ccccc2)CCN(Cc2ccc(OC)c(O)c2)CC1 | 0.473 µM (active)
* Cc1cccc(C(=O)NNC(=S)NC(=O)c2cccs2)c1 | 5.96 µM (active)
* O=C1CC(O)(C(F)(F)F)Oc2c1ccc1ccccc21 (stereo unspecified) | 9.44 µM (active)
* CCCCN(CC)CCNC(=O)c1ccc2c(Cl)c3c(nc2c1)CCC3 | 0.024 µM (active)
* CN1C(CC(=O)Nc2ccc(Br)cc2)c2ccccc2CC1(C)C (stereo unspecified) | 2.11 µM (active)

Okay, next one:
Query string: Given the entry COc1ccc(C(=O)NNC(=S)NC(=O)c2ccccc2)cc1 , report its measured EC50.
Result string: 5.96 µM (active)

====

Measurement target: Corticotropin-releasing factor receptor 2/Corticotropin-releasing factor-binding protein (Homo sapiens, UniProt P24387+Q13324)
Sequence (Q13324 whole entry): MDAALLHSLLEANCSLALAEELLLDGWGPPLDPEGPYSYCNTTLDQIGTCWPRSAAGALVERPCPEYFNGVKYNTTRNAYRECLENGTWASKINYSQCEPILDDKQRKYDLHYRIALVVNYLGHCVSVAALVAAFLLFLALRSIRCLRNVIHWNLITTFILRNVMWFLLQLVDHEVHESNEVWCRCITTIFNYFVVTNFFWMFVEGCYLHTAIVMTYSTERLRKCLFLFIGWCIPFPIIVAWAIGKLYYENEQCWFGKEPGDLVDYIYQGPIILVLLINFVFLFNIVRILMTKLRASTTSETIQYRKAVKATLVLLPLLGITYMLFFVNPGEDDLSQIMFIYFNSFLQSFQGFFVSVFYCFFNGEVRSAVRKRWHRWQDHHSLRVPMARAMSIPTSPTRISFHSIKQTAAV
Sequence (P24387 whole entry): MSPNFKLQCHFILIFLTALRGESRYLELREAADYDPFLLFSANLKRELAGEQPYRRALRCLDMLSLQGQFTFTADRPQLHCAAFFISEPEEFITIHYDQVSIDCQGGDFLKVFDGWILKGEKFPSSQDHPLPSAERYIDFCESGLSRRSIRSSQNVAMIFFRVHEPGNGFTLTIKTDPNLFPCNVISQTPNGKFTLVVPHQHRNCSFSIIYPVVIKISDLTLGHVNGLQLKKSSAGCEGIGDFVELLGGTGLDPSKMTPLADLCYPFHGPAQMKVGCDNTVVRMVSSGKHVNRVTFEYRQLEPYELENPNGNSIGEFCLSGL
Test name: Dose Response confirmation of uHTS hits for small molecule antagonists of the CRF-binding protein and CRF-R2 receptor complex.
Type: functional
Recorded conditions: read-out: IC50_Mean
Calls of active or inactive are those of the source.
Hello, when you answer, please use one of the following outcomes: yes = active, no = inactive

Past entries and their recorded results:
- Cc1cc(S(=O)(=O)NC2CCCCC2)ccc1OCC(=O)NCC1CCCO1 (configuration not stated): no
- COCCCn1c(SCC(=O)Nc2ccccc2F)nnc1-c1ccoc1C: no
- CCOC(=O)N1CCN(S(=O)(=O)c2ccc(C)c(C)c2C)CC1: no

Please find the next compound below.
Query string: Called result for O=C(CC1C(=O)NCCN1C(=O)Nc1ccccc1)Nc1ccc2c(c1)OCO2 (configuration not stated)
Result string: no
